Tested on: RARg homodimer (NR concentration 270 nM)
Assay Notes: PBM binding z-score (relative to random genomic background probes); higher = stronger binding; sequences stand for … in GC…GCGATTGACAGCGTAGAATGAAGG
Below, each entry is listed with its recorded PBM binding z-score.
Lab note: record the figure alone, no unit after it.

INSERT INTO measurements (sequence_chain, value_type, value_measured) VALUES
  ('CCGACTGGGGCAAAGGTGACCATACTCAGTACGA', 'PBM binding z-score', 1.13);

Request: Which PBM binding z-score is listed for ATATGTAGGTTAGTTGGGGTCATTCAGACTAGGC ?
Response: 2.99

Request: Returns the measured PBM binding z-score for the input sequence. Input: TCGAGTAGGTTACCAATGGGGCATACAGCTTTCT
Response: 0.627

Request: Give its PBM binding z-score value. Item: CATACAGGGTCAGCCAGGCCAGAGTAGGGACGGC
Response: 4.31

Request: Given the sequence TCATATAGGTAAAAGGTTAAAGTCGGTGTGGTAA , what is its reported PBM binding z-score?
Response: 1.54

Request: Which PBM binding z-score value belongs to CTCGGAAGGTCGTGCTCAGGTGAGTATACCAAAC ?
Response: 2.31
